biological target: Axl (Homo sapiens (Human)); settings: read-out: IC50 Axl
Sequence (P30530 26-894 limits assumed): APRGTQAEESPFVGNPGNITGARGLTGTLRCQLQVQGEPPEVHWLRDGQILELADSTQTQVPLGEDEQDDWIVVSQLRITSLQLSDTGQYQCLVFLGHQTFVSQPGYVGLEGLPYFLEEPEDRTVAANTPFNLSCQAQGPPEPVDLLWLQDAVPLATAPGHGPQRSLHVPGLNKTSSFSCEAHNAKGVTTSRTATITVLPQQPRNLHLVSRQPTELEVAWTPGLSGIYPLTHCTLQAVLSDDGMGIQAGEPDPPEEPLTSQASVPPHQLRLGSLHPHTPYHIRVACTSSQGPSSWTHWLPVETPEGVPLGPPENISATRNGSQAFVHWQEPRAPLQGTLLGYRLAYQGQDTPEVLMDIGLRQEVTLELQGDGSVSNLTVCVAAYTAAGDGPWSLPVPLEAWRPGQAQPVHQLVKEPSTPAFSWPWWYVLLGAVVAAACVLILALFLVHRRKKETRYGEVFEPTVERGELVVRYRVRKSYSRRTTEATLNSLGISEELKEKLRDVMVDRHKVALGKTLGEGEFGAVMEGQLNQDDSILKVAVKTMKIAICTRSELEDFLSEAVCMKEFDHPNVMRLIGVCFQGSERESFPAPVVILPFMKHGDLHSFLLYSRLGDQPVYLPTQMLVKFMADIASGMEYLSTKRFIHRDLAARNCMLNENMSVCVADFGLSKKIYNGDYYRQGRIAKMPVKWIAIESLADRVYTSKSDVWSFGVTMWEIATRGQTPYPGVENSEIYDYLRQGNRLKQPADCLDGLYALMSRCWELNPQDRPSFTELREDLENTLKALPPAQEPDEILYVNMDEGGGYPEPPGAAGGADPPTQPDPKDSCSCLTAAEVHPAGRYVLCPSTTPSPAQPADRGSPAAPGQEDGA
pIC50: −log10 of the molar value.
reported-endpoint: pIC50

[
  {
    "compound": "CCCCNc1ncc(-c2ccc(C=O)o2)c(N[C@H]2CC[C@H](O)CC2)n1 [UNC2902A]",
    "tested-target": "Axl (Homo sapiens (Human))",
    "pIC50": 5.79
  },
  {
    "compound": "CCCCNc1ncc(-c2ccccn2)c(NCCO)n1 [UNC2997A]",
    "tested-target": "Axl (Homo sapiens (Human))",
    "pIC50": 4.52
  },
  {
    "compound": "CCCCNc1ncc(-c2ccc(NC(=O)C3CCCCC3)cn2)c(NC2CCC(O)CC2)n1 (stereo not drawn) [UNC2712A]",
    "tested-target": "Axl (Homo sapiens (Human))",
    "pIC50": 6.44
  },
  {
    "compound": "CCCCNc1ncc(-c2nccnc2N)c(N[C@H]2CC[C@H](O)CC2)n1 [UNC3119A]",
    "tested-target": "Axl (Homo sapiens (Human))",
    "pIC50": 4.52
  },
  {
    "compound": "CCCCNc1ncc(C(=O)Nc2ccc(CN3CCN(C)CC3)cc2)c(N[C@H]2CC[C@H](O)CC2)n1 [UNC2764A]",
    "tested-target": "Axl (Homo sapiens (Human))",
    "pIC50": 6.75
  }
]

A = CCCCNc1ncc(-c2cnc(N)c(OC)n2)c(N[C@H]2CC[C@H](O)CC2)n1 [UNC3043A]
B = CCCCNc1ncc(C(=O)NCc2ccc(-n3ccnc3C)cc2)c(N[C@H]2CC[C@H](O)CC2)n1 [UNC3004A]
Endpoint returns the identifier whose pIC50 is numerically larger, either A or B . Pick one and reply with its label. B

I = CCCCNc1ncc(-c2cn(C)cn2)c(N[C@H]2CC[C@H](O)CC2)n1 [UNC3116A]
II = CCCCNc1ncc(-c2cc(Nc3cccc(OC)c3)ncn2)c(N[C@H]2CC[C@H](O)CC2)n1 [UNC4270A]
Smaller pIC50 value? Options are I and II Pick one and reply with its label. I
(I: 5.00, II: 6.80)

Reference source for all entries: patent US9649309B2
